What GI50 was measured for each of the following?
tested on: ACHN; assay: NCI tumour cell line growth inhibition, 48 h
Active and inactive are the calls of the source. No stated cut-off is given here; in the data, active = GI50 up to about 1.1 µM and inactive = higher.

Let me know recorded GI50 for C=C1CCC2C(C)(CO)C(O)CCC2(C)C1CC(O)C1=CCOC1=O (centres undefined) , thanks.
60.7 µM (inactive)

Give a short answer stating reported GI50 for CC(=O)NC1C(OCc2ccccc2)OC(CO)C(O)C1OCC(=O)N[C@@H](C)C(=O)N[C@H](CCC(=O)NCCCNc1ccc([N+](=O)[O-])c2[nH]c3ccccc3c(=O)c12)C(N)=O (some centres undefined) .
50.8 µM (inactive)

Quick one: give measured GI50 for `NC(=S)N/N=C\CC(O)(C(F)(F)F)C(F)(F)F`
> 10 µM (inactive)

Supply GI50 value. Item: `O=C(OCCOCBr)c1ccccc1`
> 100 µM (inactive)
